Please go through the items and note down their Oat, Wild plant response rating (0-100).
# Test system: oat, wild (wild oat, Avena fatua)
# Run Description: Test A preemergence soil spray, visual injury rating 0-100
# Assay type: in vivo
# Condition Details: 62 g ai/ha, 10 days, 0 = no effect, 100 = complete control
Answers are plain numbers.

CC(C)OC(=O)C1=CCC(NC(=O)C2(C)CN(c3cc(Cl)cc(Cl)c3)C(=O)O2)C1 (stereo not drawn) [Compound 106]    0
CSCCOC(=O)C1CC(NC(=O)C2(C)CN(c3cc(F)cc(F)c3)C(=O)O2)C1 (racemic) [Compound 120]    90
CC1(C(=O)NC2CC=C(C(=O)NS(=O)(=O)C3CC3)C2)CN(c2cc(F)cc(F)c2)C(=O)O1 (racemic) [Compound 90]    0
COC(=O)COC(=O)C1=CCC(NC(=O)C2(C)CN(c3cc(F)cc(F)c3)C(=O)O2)C1 (stereo not drawn) [Compound 107]    0
CCOC(=O)C1=CCC(NC(=O)C2(C)CN(c3cc(Cl)cc(Cl)c3)C(=O)O2)C1 (stereo not drawn) [Compound 114]    20

// moving on: another record for Oat, Wild plant response rating (0-100)
System oat, wild (wild oat, Avena fatua). Read-out Oat, Wild plant response rating (0-100). Item CC1(C(=O)NC2CC=C(C(=O)OCC(F)(F)F)C2)CN(c2cc(F)cc(Cl)c2)C(=O)O1 (stereo not drawn) [Compound 142] . Report value.
0

* * *

# Tested on: oat, wild (wild oat, Avena fatua)
# Run Description: Test A postemergence application, visual injury rating 0-100
# Format: in vivo
# Condition Details: 31 g ai/ha, postemergence, 10 days, 0 = no effect, 100 = complete control
Measurement Name: Oat, Wild plant response rating (0-100)
One number for each entry.

Check out these entries, answers already filled in.
CSCCOC(=O)C1=CCC(NC(=O)C2(C)CN(c3cc(F)cc(F)c3)C(=O)O2)C1 (centres unmarked)    40
CC1(C(=O)NC2C=CC(C(=O)OC3CCCC3)C2)CN(c2cc(F)cc(F)c2)C(=O)O1 (centres unmarked)    90
CC1(C(=O)NC2CCC(C(=O)O)C2)CN(c2cc(F)cc(F)c2)C(=O)O1 (centres unmarked)    90

Please supply Oat, Wild plant response rating (0-100) for each of the following items, keeping them in order.
1. CCOC(=O)C1CCC(NC(=O)C2(C)CN(c3cc(F)cc(Cl)c3)C(=O)O2)C1 (centres unmarked)
2. CONC(=O)C1CC(NC(=O)C2(C)CN(c3cc(F)cc(F)c3)C(=O)O2)CO1 (centres unmarked) [Compound 40]
3. CONC(=O)C1CC(NC(=O)C2(C)CN(c3cc(F)cc(F)c3)C(=O)O2)CO1 (centres unmarked) [Compound 41]
4. COC(=O)C1CCC(NC(=O)C2(C)CN(c3cc(F)cc(F)c3)C(=O)O2)C1 (centres unmarked)
5. CC(C)COC(=O)C1C=CC(NC(=O)C2(C)CN(c3cc(F)cc(F)c3)C(=O)O2)C1 (centres unmarked)

90
90
10
90
90

* * *

Please go through the items and note down their Blackgrass plant response rating (0 to 100 scale).
# Test system: blackgrass (Alopecurus myosuroides)
# Run Description: Test A postemergence application, visual injury rating 0-100
# Format: in vivo
# Condition Details: Postemergence, 125 g ai/ha, 10 days; 0 is no effect, 100 is complete control
One number for each entry.

CC1(C(=O)NC2CC=C(C(=O)OCC(F)(F)F)C2)CN(c2cc(F)cc(F)c2)C(=O)O1 (stereo not shown)    100

Please supply Blackgrass plant response rating (0 to 100 scale) for each of the following items, keeping them in order.
1. CC1(C(=O)NC2C=CC(C(=O)NS(=O)(=O)C(C)(C)C)C2)CN(c2cc(F)cc(F)c2)C(=O)O1 (stereo not shown)
2. CC(C)COC(=O)C1C=CC(NC(=O)C2(C)CN(c3cc(Cl)cc(Cl)c3)C(=O)O2)C1 (stereo not shown)
3. CC1(C(=O)NC2C=CC(C(=O)OCCS(C)(=O)=O)C2)CN(c2cc(Cl)cc(Cl)c2)C(=O)O1 (stereo not shown)
4. CC(=O)COC(=O)C1C=CC(NC(=O)C2(C)CN(c3cc(Cl)cc(Cl)c3)C(=O)O2)C1 (stereo not shown)
5. COC(=O)C1=CC[C@H](NC(=O)C2(C)CN(c3cc(F)cc(F)c3)C(=O)O2)C1 (mixture of isomers)
6. CCCS(=O)(=O)OC(=O)C1C=CC(NC(=O)C2(C)CN(c3cc(Cl)cc(Cl)c3)C(=O)O2)C1 (mixture of isomers)

70
90
100
100
90
90

* * *

# System: ryegrass, Italian (italian ryegrass, Lolium multiflorum)
# Run Description: Test A postemergence application, visual injury rating 0-100
# Type: in vivo
# Condition Details: 31 g ai/ha, postemergence, 10 days, 0 = no effect, 100 = complete control
Measurement Name: Ryegrass, Italian plant response rating (0-100)
Numbers only.

CC1(C(=O)NC2CCC(C(=O)O)C2)CN(c2cc(F)cc(F)c2)C(=O)O1 (centres unmarked) [Compound 9]    50
CCOC(=O)C1=CCC(NC(=O)C2(C)CN(c3cc(F)cc(F)c3)C(=O)O2)C1 (centres unmarked) [Compound 15]    80

Please supply Ryegrass, Italian plant response rating (0-100) for each of the following items, keeping them in order.
1. CC1(C(=O)NC2CC=C(C(=O)OCC(F)(F)F)C2)CN(c2cc(F)cc(F)c2)C(=O)O1 (centres unmarked) [Compound 1]
2. COC(=O)C1CCC(NC(=O)C2(C)CN(c3cc(F)cc(F)c3)C(=O)O2)C1 (centres unmarked) [Compounds 10]
3. CC(C)OC(=O)C1CC(NC(=O)C2(C)CN(c3cc(F)cc(F)c3)C(=O)O2)CO1 (centres unmarked) [Compound 32]
4. CC1(C(=O)NC2C=CC(C(=O)O)C2)CN(c2cc(F)cc(Cl)c2)C(=O)O1 (centres unmarked) [Compound 6]
5. COC(=O)C1CC(NC(=O)C2(C)CN(c3cc(F)cc(F)c3)C(=O)O2)CO1 (centres unmarked) [Compound 29]

1: 80; 2: 60; 3: 20; 4: 80; 5: 50

Name the recorded Ryegrass, Italian plant response rating (0-100) of the compound listed here: COC(=O)C1C=CC(NC(=O)C2(C)CN(c3cc(F)cc(Cl)c3)C(=O)O2)C1 (centres unmarked) [Compound 17]
90

* * *

Please go through the items and note down their Blackgrass plant response rating (0-100).
# Tested on: blackgrass (Alopecurus myosuroides)
# Run Description: Test A preemergence soil spray, visual injury rating 0-100
# Format: in vivo
# Condition Details: 31 g ai/ha, 10 days, 0 = no effect, 100 = complete control
Give bare numbers.

Check out these entries, answers already filled in.
CC(=O)COC(=O)C1C=CC(NC(=O)C2(C)CN(c3cc(Cl)cc(Cl)c3)C(=O)O2)C1 (centres unmarked)    20
CC1(C(=O)NC2CC=C(C(=O)OCC(F)(F)F)C2)CN(c2cc(F)cc(F)c2)C(=O)O1 (single isomer, unassigned)    0
CONC(=O)C1CC(NC(=O)C2(C)CN(c3cc(F)cc(F)c3)C(=O)O2)CO1 (centres unmarked)    0

Please supply Blackgrass plant response rating (0-100) for each of the following items, keeping them in order.
1. CC(C)OC(=O)C1=CCC(NC(=O)C2(C)CN(c3cc(F)cc(F)c3)C(=O)O2)C1 (centres unmarked)
2. CC1(C(=O)NC2CCC(C(=O)O)C2)CN(c2cc(F)cc(F)c2)C(=O)O1 (centres unmarked)

30
0

* * *

# Tested on: soybean (Glycine max)
# Run Description: Test A preemergence soil spray, visual injury rating 0-100
# Assay type: in vivo
# Condition Details: 125 g ai/ha, 10 days, 0 = no effect, 100 = complete control
Please go through the items and note down their Soybean plant response rating (0 to 100 scale).

COCCOC(=O)C1C=CC(NC(=O)C2(C)CN(c3cc(F)cc(F)c3)C(=O)O2)C1 (stereo not shown)    60
CC1(C(=O)NC2CCC(C(=O)O)C2)CN(c2cc(F)cc(F)c2)C(=O)O1 (stereo not shown)    80
CCCS(=O)(=O)OC(=O)C1C=CC(NC(=O)C2(C)CN(c3cc(Cl)cc(Cl)c3)C(=O)O2)C1 (mixture of isomers)    70
CC1(C(=O)NC2C=CC(C(=O)OCC(F)(F)F)C2)CN(c2cc(Cl)cc(Cl)c2)C(=O)O1 (stereo not shown)    40
CC(C)OC(=O)C1C=CC(NC(=O)C2(C)CN(c3cc(F)cc(Cl)c3)C(=O)O2)C1 (stereo not shown)    70

Please supply Soybean plant response rating (0 to 100 scale) for each of the following items, keeping them in order.
1. CC(C)OC(=O)C1CCC(NC(=O)C2(C)CN(c3cc(F)cc(F)c3)C(=O)O2)C1 (stereo not shown)
2. CC1(C(=O)NC2CC=C(C(=O)OCC(F)(F)F)C2)CN(c2cc(F)cc(F)c2)C(=O)O1 (single isomer, unassigned)

1. 0
2. 10
